# target_or_system: CYP121 (Mycobacterium tuberculosis, UniProt P9WPP7)
# Sequence (P9WPP7 whole entry): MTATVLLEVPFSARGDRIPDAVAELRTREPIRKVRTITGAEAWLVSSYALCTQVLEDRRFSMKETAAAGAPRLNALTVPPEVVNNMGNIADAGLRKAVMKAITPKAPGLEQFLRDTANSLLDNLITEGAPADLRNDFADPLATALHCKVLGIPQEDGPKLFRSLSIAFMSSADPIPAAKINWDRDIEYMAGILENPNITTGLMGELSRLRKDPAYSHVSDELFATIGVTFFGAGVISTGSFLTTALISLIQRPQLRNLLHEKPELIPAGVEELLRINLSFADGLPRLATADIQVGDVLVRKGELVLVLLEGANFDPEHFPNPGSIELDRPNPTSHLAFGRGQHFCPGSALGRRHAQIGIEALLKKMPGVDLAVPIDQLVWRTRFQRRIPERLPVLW
# measurement_description: Single shot UV–vis absorbance assay (Soret band shift, competition with type II inhibitor) on CYP121
# Format: binding
# condition_parameters: CYP121 5 μM, vs 1% v/v DMSO-d6 alone (λmax = 416.5 nm), single shot
In this section we review reported Δλmax (change in wavelength of the Soret band) values for a set of compounds.
Write your answer as a measured quantity: the number, then the unit.

Enquiry: Any idea what its Δλmax (change in wavelength of the Soret band) is? The compound is Nc1[nH]ncc1-c1cccc(-c2ccc3cc[nH]c3c2)c1 [18h]
Return: 0 nm

Enquiry: Any idea what its Δλmax (change in wavelength of the Soret band) is? The compound is Nc1[nH]ncc1-c1cccc(-c2ccc3[nH]ccc3c2)c1 [18g]
Return: 0 nm

Enquiry: Any idea what its Δλmax (change in wavelength of the Soret band) is? The compound is Nc1[nH]ncc1-c1cccc(-c2cn[nH]c2)c1 [18i]
Return: 0 nm

Enquiry: Any idea what its Δλmax (change in wavelength of the Soret band) is? The compound is Nc1[nH]ncc1-c1cccc(-c2ccncc2)c1 [18f]
Return: 1 nm

Enquiry: Any idea what its Δλmax (change in wavelength of the Soret band) is? The compound is Nc1[nH]ncc1-c1cccc(-c2cccnc2)c1 [18e]
Return: 0 nm
